Reported Emax values for a set of molecules
test-target: Full-length glucokinase (beta cell isoform) (Homo sapiens, UniProt P35557)
Construct: Full-length glucokinase (beta cell isoform) was His-tagged at N-terminus; His tag (N); made in house; host or cells: E. coli BL21(DE3), pBCGK vector
Sequence (P35557 whole entry, canonical isoform): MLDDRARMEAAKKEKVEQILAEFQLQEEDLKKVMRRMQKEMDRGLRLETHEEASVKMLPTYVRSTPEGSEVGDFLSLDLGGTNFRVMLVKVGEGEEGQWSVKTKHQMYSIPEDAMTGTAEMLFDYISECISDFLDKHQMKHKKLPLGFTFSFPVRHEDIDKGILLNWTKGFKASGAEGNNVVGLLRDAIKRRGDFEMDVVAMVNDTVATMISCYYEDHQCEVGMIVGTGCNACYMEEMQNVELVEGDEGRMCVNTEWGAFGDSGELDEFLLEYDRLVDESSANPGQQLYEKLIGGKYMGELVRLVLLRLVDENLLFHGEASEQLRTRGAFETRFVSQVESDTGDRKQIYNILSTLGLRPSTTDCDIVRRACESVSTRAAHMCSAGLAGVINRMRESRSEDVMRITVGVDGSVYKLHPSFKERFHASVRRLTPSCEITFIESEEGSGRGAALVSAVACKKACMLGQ
assay-explanation: Glucokinase activation assay (PK/LDH-coupled, NADH depletion at 340 nm)
Type: biochemical
settings: % max activation = (Va/Vo−1)×100 from fit; 5 mM glucose, pH 7.1; single value or range where N>1; read-out: Maximum Activation (%)

Example entries begin here.
INSERT INTO results (query_smiles, result_type, result) VALUES
  ('COc1ccc2nc(NC(=O)[C@H](CC3CCOCC3)n3cnc(C(F)(F)F)c3)sc2n1', 'Emax', '109 to 114%'),
  ('CC(C)S(=O)(=O)c1cnn([C@@H](CC2CCCC2)C(=O)Nc2ccn(Cc3ccccc3)n2)c1', 'Emax', '33 to 39%');

Problem: Data request, read-out Emax, for "CS(=O)(=O)c1ccc(NC(=O)[C@H](CC2CCCC2)n2cnc(C(F)(F)F)c2)nc1"
Result: 90 to 113%

Problem: What measured Emax goes with "Cc1nc(C(F)(F)F)cn1[C@@H](CC1CCCC1)C(=O)Nc1ccc(C(=O)O)cn1" ?
Result: 158 to 168%

Problem: Need Emax of "Cn1ccc(NC(=O)[C@H](CC2CCCC2)n2cnc(C(F)(F)F)c2)n1" , thanks.
Result: 147 to 166%

Problem: Requested read-out: Emax. Entry: "Cc1cnc(NC(=O)[C@H](CC2CCCC2)n2cc(S(=O)(=O)C(C)C)cn2)cn1"
Result: 70 to 76%

Problem: State the recorded Emax for this entry: "O=C(O)c1ccc(NC(=O)[C@H](CC2CCCCC2)n2cnc(C(F)(F)F)c2)nc1"
Result: 120 to 138%

Problem: Form field: reported Emax of "Cc1ccc(NC(=O)[C@H](CC2CCCC2)n2cc(C)c(C(F)(F)F)n2)nc1"
Result: 92 to 95%
